Values were extracted from the NIST ThermoML archive (doi:10.1016/j.jct.2015.02.024).

- method.summary: activity coefficient (dimensionless); of the first substance listed, at infinite dilution; xn = mol fraction of the nth substance listed
- experimental.setup: 348.15 K; 101 kPa; Liquid; Chromatography; x1 = 0
Decision: activity coefficient >= 3 yields 1, all other cases yield 0.

Is reported activity coefficient greater than or equal to 3 here: CC(C)CO [2-methyl-1-propanol] + C[N+]1(CCCO)CCOCC1.O=S(=O)([N-]S(=O)(=O)C(F)(F)F)C(F)(F)F
0

Similarly, CCCCCCCCCC [decane] + C[N+]1(CCCO)CCOCC1.O=S(=O)([N-]S(=O)(=O)C(F)(F)F)C(F)(F)F ?
1

Next entry: c1ccncc1 [pyridine] + C[N+]1(CCCO)CCOCC1.O=S(=O)([N-]S(=O)(=O)C(F)(F)F)C(F)(F)F
0

What about O [water] + C[N+]1(CCCO)CCOCC1.O=S(=O)([N-]S(=O)(=O)C(F)(F)F)C(F)(F)F ?
0

Again, but for CCO [ethanol] + C[N+]1(CCCO)CCOCC1.O=S(=O)([N-]S(=O)(=O)C(F)(F)F)C(F)(F)F
0

Would you mind doing CCCCCCCC [octane] + C[N+]1(CCCO)CCOCC1.O=S(=O)([N-]S(=O)(=O)C(F)(F)F)C(F)(F)F as well?
1

Let us now turn to CC(C)OC(C)C [diisopropyl ether] + C[N+]1(CCCO)CCOCC1.O=S(=O)([N-]S(=O)(=O)C(F)(F)F)C(F)(F)F
1

Repeat for the following compound: c1ccccc1 [benzene] + C[N+]1(CCCO)CCOCC1.O=S(=O)([N-]S(=O)(=O)C(F)(F)F)C(F)(F)F
0

Another: CCCO [propan-1-ol] + C[N+]1(CCCO)CCOCC1.O=S(=O)([N-]S(=O)(=O)C(F)(F)F)C(F)(F)F
0

Also, c1ccsc1 [thiophene] + C[N+]1(CCCO)CCOCC1.O=S(=O)([N-]S(=O)(=O)C(F)(F)F)C(F)(F)F please.
0

Also need C#CCCC [1-pentyne] + C[N+]1(CCCO)CCOCC1.O=S(=O)([N-]S(=O)(=O)C(F)(F)F)C(F)(F)F , thanks.
1

And what about the compound COC(C)(C)C [2-methoxy-2-methylpropane] + C[N+]1(CCCO)CCOCC1.O=S(=O)([N-]S(=O)(=O)C(F)(F)F)C(F)(F)F ?
1

Please answer likewise for CC(C)(C)O [2-methylpropan-2-ol] + C[N+]1(CCCO)CCOCC1.O=S(=O)([N-]S(=O)(=O)C(F)(F)F)C(F)(F)F
0

And CC1CCCCC1 [methylcyclohexane] + C[N+]1(CCCO)CCOCC1.O=S(=O)([N-]S(=O)(=O)C(F)(F)F)C(F)(F)F ?
1

And then CCCC(=O)OC [methyl butanoate] + C[N+]1(CCCO)CCOCC1.O=S(=O)([N-]S(=O)(=O)C(F)(F)F)C(F)(F)F , what is it?
0

----------
- method.summary: activity coefficient (dimensionless); of the first substance listed, at infinite dilution; xn = mol fraction of the nth substance listed
- experimental.setup: 338.15 K; 101 kPa; Liquid; Chromatography; x1 = 0
reported.endpoint: activity coefficient

Value lookup for activity coefficient; key = C#CCCCCC [1-heptyne] + C[N+]1(CCCO)CCOCC1.O=S(=O)([N-]S(=O)(=O)C(F)(F)F)C(F)(F)F
18.4

And then O [water] + C[N+]1(CCCO)CCOCC1.O=S(=O)([N-]S(=O)(=O)C(F)(F)F)C(F)(F)F , what is it?
1.28

What do you get for C=CCCCCCCCC [1-decene] + C[N+]1(CCCO)CCOCC1.O=S(=O)([N-]S(=O)(=O)C(F)(F)F)C(F)(F)F ?
243

Field entry: C#CCCC [1-pentyne] + C[N+]1(CCCO)CCOCC1.O=S(=O)([N-]S(=O)(=O)C(F)(F)F)C(F)(F)F
7.24

Consider next the molecule CC1CCCCC1 [methylcyclohexane] + C[N+]1(CCCO)CCOCC1.O=S(=O)([N-]S(=O)(=O)C(F)(F)F)C(F)(F)F in the same way.
73.3

// same read-out, input: CCCCCCCC [octane] + C[N+]1(CCCO)CCOCC1.O=S(=O)([N-]S(=O)(=O)C(F)(F)F)C(F)(F)F
230

Follow-up item: C=CCCCCC [1-heptene] + C[N+]1(CCCO)CCOCC1.O=S(=O)([N-]S(=O)(=O)C(F)(F)F)C(F)(F)F
69.3
